B1: LINE1-full (parent)
chain: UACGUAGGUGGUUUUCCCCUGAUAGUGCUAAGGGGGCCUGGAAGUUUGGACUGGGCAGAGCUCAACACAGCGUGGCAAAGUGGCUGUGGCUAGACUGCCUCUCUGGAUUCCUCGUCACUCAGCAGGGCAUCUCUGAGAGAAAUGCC

Variants of: B1
Assay: self-cleavage, relative activity (ratio to wild type); higher = more cleavage; in vitro, sequencing; the parent is a self-cleaving ribozyme
property.name: self-cleavage

Asked: What value of self-cleavage has been reported for the following variant? UUCGUAGGUGGCUUUCCCCUGAUAGUGCUAAGGGGGCCUGGAAGUUUGGACUGGGCAGAGCUCAACACAGCGUGGCAAAGUGGCUGUGGCUAGACUGCCUCUCUGGAUUCCUCGUCACUCAGCAGGGCAUCUCUGAGAGAAAUGCC [A2U U12C]
Given back: 0.64

Asked: Continue with UACGUAGGUGGUUUUCCCCUGAUAGUGCUAAGGGGGCCUGGAAGUUUGGACUGGGCAGAGCUCAACACAGCGUGGCAAAGUGGCUGAGGCUAGACUGCCUCUCUGGAUUCCUAGUCACUCAGCAGGGCAUCUCUGAGAGAAAUGCC [U87A C113A]
Given back: 0.06

Asked: Continue with UACGUAGGUGGUUUUCCCCUGAUAGUGCUAAGGGGGCCUGGAAGUUUGGACUGGGCAGAGCUCAACACAGCGUGGCAAAGUGGCGGUGGCUAGACUGCCUCUCUGGAUUCCUCGUCACUCAGCAGGGCAUCUCUGAGAGGAAUGCC [U85G A140G]
Given back: 0.19

Asked: Continue with UACGUAGGUGGUUUUCCCCUGAUAGUGCUGAGGGGGCCUGGAAGUUUGGACUGGGCAGAGCUCAACACAGCGUGGCAAAGUGGCUGUGGCUAGACUGCCUCUCUGGAUUCCUCGCCACUCAGCAGGGCAUCUCUGAGAGAAAUGCC [A30G U115C]
Given back: 1.12

Asked: Continue with UACGUAGGUGGUUUUCCCCUGAUAGUGCUAAGGGGGCCUGGAAGUCUGGACUGGGCAGAGCUCAACACAGCGUGGCAAAGUGGCUGUGGCUAGACUGCCUCUCAGGAUUCCUCGUCACUCAGCAGGGCAUCUCUGAGAGAAAUGCC [U46C U104A]
Given back: 1.11

Asked: Continue with UACGUAGGUGGUUUUCCCCUGAUAGUGCUAAGGGGGACUGGAAGUUUGGACUGGGCAGAGCUCAACACAGCGUGGCAAAGUGGCUGUGGCUCGACUGCCUCUCUGGAUUCCUCGUCACUCAGCAGGGCAUCUCUGAGAGAAAUGCC [C37A A92C]
Given back: 0.2

Asked: Continue with UACGUAGGUGGUUUUCCCCUGAUAGUGCUAAGAGGGCCUGGAAGUUUGGACUGGGCAGAGCUCAACACAGCGUGGCAAAGUGGCUGCGGCUAGACUGCCUCUCUGGAUUCCUCGUCACUCAGCAGGGCAUCUCUGAGAGAAAUGCC [G33A U87C]
Given back: 0.2

Asked: Continue with UACGUAGGUGGUUUUCCCCAGAUAGUGCUAAGGGGGCCUGGAAGUUUGGACUGGGCAGAGCUCAACACAGCGCGGCAAAGUGGCUGUGGCUAGACUGCCUCUCUGGAUUCCUCGUCACUCAGCAGGGCAUCUCUGAGAGAAAUGCC [U20A U73C]
Given back: 1.42

Asked: Continue with UACGUAGGUGGUUUUCCCCUGAUAGUGCUAAGGGGGCCAGGAAGUUUGGACUGGGCAGAGCUCAUCACAGCGUGGCAAAGUGGCUGUGGCUAGACUGCCUCUCUGGAUUCCUCGUCACUCAGCAGGGCAUCUCUGAGAGAAAUGCC [U39A A65U]
Given back: 0.15

Asked: Continue with UACGUAGGUGGUUUUCCCCUGAUAGUGCUAAGGGGGCCUGGAAGUUUGGACUGGGCAGAGCUCAACACAGCGUGGCAACGUGGCUGUGGCUAGACUGCCUCUCUGGAUUCCUCGUCACUCAGCAGGGCGUCUCUGAGAGAAAUGCC [A79C A129G]
Given back: 1.93

Working through the 5 variants below one at a time, give self-cleavage for each.
1. UACGUAGGUGGUUUUCCCCUGAUAGCGCUAAGGGGGCCAGGAAGUUUGGACUGGGCAGAGCUCAACACAGCGUGGCAAAGUGGCUGUGGCUAGACUGCCUCUCUGGAUUCCUCGUCACUCAGCAGGGCAUCUCUGAGAGAAAUGCC [U26C U39A]
2. UACGAAGGUGGUUUUCCCCUGAUAGUGCUAAGGGGGCCUGGAAGUUUGGACUGGGCAGAGCUCAACACAGCGUGGCAAAGUGGCUGUGGCUAGACUGCCUCUCUGGAUUCCUCGUCACUCAGCAGGGCAUCUCUGAGAGAAAUGCC [U5A]
3. UACGUAGGUGGUUUUCCCCUGAUAGUGCUAAGGGGGCCUGGAAGUUUGGACUGGGCAGAGCUCAACACAGCGUGGCAAAGUGGCUGUGGCUAGACUGCCUCUCUGGAUUCCUCGUCACUCAGCCGGGCAUCUCCGAGAGAAAUGCC [A124C U134C]
4. UACAUAGGUGGUUUUCCCCUGAUAGUGCUAAGGGGGCCUGGAAGUUUGGACUGGGCAGAGCUCAACACAGCGUGGCAAGGUGGCUGUGGCUAGACUGCCUCUCUGGAUUCCUCGUCACUCAGCAGGGCAUCUCUGAGAGAAAUGCC [G4A A79G]
5. UACGUAGGUGGUUUUCCCCUGAUAGGGCUAAGGGGGCCUGGAAGUUUGGACUGGGCAGAGCACAACACAGCGUGGCAAAGUGGCUGUGGCUAGACUGCCUCUCUGGAUUCCUCGUCACUCAGCAGGGCAUCUCUGAGAGAAAUGCC [U26G U62A]

Given back:
1. 1.9
2. 0.95
3. 2.04
4. 1.3
5. 0.03

Working through the 7 variants below one at a time, give self-cleavage for each.
1. UACGUAGGUGGUUUUCCCCUGAUAGUGCUAAGGGGGCCUGGAAGUAUGGACUGGGCAGAGCUCAACACAGCGUGGCAAAGUGGCUGUGGCUAGACUGCCUCUCUGGAUUCCUCGUCACUCAGCAGGGCAUCUCAGAGAGAAAUGCC [U46A U134A]
2. UACGUAGGUGGUUUUCCUCUGAUAGUGCUAAGGGGGCCUGGAAGCUUGGACUGGGCAGAGCUCAACACAGCGUGGCAAAGUGGCUGUGGCUAGACUGCCUCUCUGGAUUCCUCGUCACUCAGCAGGGCAUCUCUGAGAGAAAUGCC [C18U U45C]
3. UACGUAGGUGGUUUUCCCCUGAUAGUGCUAAGGGGGCCUGAAAGUUUGGACUGGGCAGAGCUCAACACAGCGUGGCAAAGUGGCUGUGGCUAGACUGCCUCUCUGGAUUCCUCGUCACUCGGCAGGGCAUCUCUGAGAGAAAUGCC [G41A A121G]
4. UACGUAGGUGGUUUUCCCCUGAUAGUGCUAAGGGGGCCUGGAAGUUUGGACUGGGCAGAGCUCAACACAGCGUGGCAAAGUGGCUGUAGCUAGACUGCCUCUCUGGCUUCCUCGUCACUCAGCAGGGCAUCUCUGAGAGAAAUGCC [G88A A107C]
5. UACGUAGGUGGUCUUCCCCUGAUAGUGCUAAGGGGGCCUGGAAGUUUGGACUGGGCAGAGCUCAACACAGCGUGGCAAAGUGGCUGUGGCUAGACUGCCUCUCUGGAUUCCUCGUCACUCAGCAGGGCAUCUCUGAGAGAGAUGCC [U13C A141G]
6. UACGUAGGUGGUUUUCCCCUGAUAGUGCUAAGGUGGCCUGGAAGUUUGGACUGGGCAGAGCUCAACACAGCGUGGCAAAGUGGCUGUGGCUAGACUGCCUCUCUGGAUUCCUCGUCACUCAGCAGGGCAUCUCUGAGAGAAAGGCC [G34U U143G]
7. UACGUAGGUGGUUUUCCCCUGAUAGUGCUAAGAGGGCCUGGAAGUUUGGACUGGGCAGAGCUCAACACAGCGUGGCUAAGUGGCUGUGGCUAGACUGCCUCUCUGGAUUCCUCGUCACUCAGCAGGGCAUCUCUGAGAGAAAUGCC [G33A A77U]

Given back:
[0.77, 0.57, 1.15, 0.03, 1.18, 1.01, 1.47]
